- System: LNCaP tumor-transplanted mouse
- Protocol summary: Internal radioactivity distribution using LNCaP tumor-transplanted mouse
- Assay type: in vivo
- Measurement parameters: 1 h after administration
With a cut-off of 0.2 % ID/g, any Brain strictly below it is called class 1; any Brain meeting it or above is called class 0.

State whether 0.2 % ID/g exceeds Brain recorded for O=C([O-])CN1CCN(C(CCC(=O)NCCC(=O)N2Cc3ccccc3-c3c(nnn3CCOCCOCCOCCOCCC(=O)NCCCC[C@H](NC(=O)N[C@@H](CCC(=O)O)C(=O)O)C(=O)O)-c3ccccc32)C(=O)[O-])CCN(CC(=O)[O-])CCN(C(CCC(=O)N[C@@H](CCCCNC(=O)CCCc2ccc(I)cc2)C(=O)O)C(=O)[O-])CC1.[111In+3] (stereo partly shown) [[^111In]In-PtDA] .
class 0

----------
- Tested on: LNCaP tumor-transplanted mouse
- Protocol summary: Internal radioactivity distribution using LNCaP tumor-transplanted mouse
- Type: in vivo
- Measurement parameters: 24 h after administration
Decide using Pancreas alone. Strictly below 0.3 % ID/g: true (1). Equal to or above 0.3 % ID/g: false (0).

Check out these entries, answers already filled in.
Molecule: O=C([O-])CN1CCN(C(CCC(=O)NCCCC[C@H](NC(=O)N[C@@H](CCC(=O)O)C(=O)O)C(=O)O)C(=O)[O-])CCN(CC(=O)[O-])CCN(C(CCC(=O)N[C@@H](CCCCNC(=O)CCCc2ccc(I)cc2)C(=O)O)C(=O)[O-])CC1.[111In+3] (some centres unmarked) [[^111In]In-PSMA-DA1]
Category label: false (0)
//
Molecule: O=C([O-])CN(CCN(CCc1ccc(NC(=O)CCCCCNC(=O)CCC(=O)NCCCC[C@H](NC(=O)N[C@@H](CCC(=O)O)C(=O)O)C(=O)O)cc1)CCN(CC(=O)[O-])Cc1cccc(C(=O)[O-])n1)Cc1cccc(C(=O)[O-])n1.[111In+3] [[^111In]In-Neunpa-1, reference compound]
Category label: true (1)

Strictly below 0.3 % ID/g in Pancreas? O=C([O-])CN(Cc1cccc(C(=O)[O-])n1)C[C@H](Cc1ccc(NC(=O)[C@H](CCCCNC(=O)CCC(=O)NCCCC[C@H](NC(=O)N[C@@H](CCC(=O)O)C(=O)O)C(=O)O)NC(=O)COCCOCCOCC(=O)N[C@@H](CCCCNC(=O)CCCc2ccc(I)cc2)C(=O)O)cc1)N(CC(=O)[O-])Cc1cccc(C(=O)[O-])n1.[111In+3] [[^111In]In-Octapa-3]
false (0)

Quick check: does O=C([O-])CN1CCN(C(CCC(=O)NCCCC[C@H](NC(=O)N[C@@H](CCC(=O)O)C(=O)O)C(=O)O)C(=O)[O-])CCN(CC(=O)[O-])CCN(C(CCC(=O)Nc2ccccc2)C(=O)[O-])CC1.[111In+3] (some centres unmarked) [[^111In]In-PSMA-DB, reference compound] have Pancreas under 0.3 % ID/g?
false (0)

Could you please tell me whether Pancreas recorded for O=C([O-])CN(Cc1cccc(C(=O)[O-])n1)C[C@H](Cc1ccc(NC(=O)[C@H](CCCCNC(=O)CCC(=O)NCCCC[C@H](NC(=O)N[C@@H](CCC(=O)O)C(=O)O)C(=O)O)NC(=O)CCCc2ccc(I)cc2)cc1)N(CC(=O)[O-])Cc1cccc(C(=O)[O-])n1.[111In+3] [[^111In]In-Octapa-2] is less than 0.3 % ID/g?
true (1)
